FYI, the data here is from ChEMBL document CHEMBL5154893.

# tested system: 20S proteasome (Homo sapiens) (UniProt P49721+P20618+P28074+P28062+P28065+P28072+P25786+P25787+P25788+P25789+P28066+P60900+O14818+Q8TAA3+P40306+A5LHX3+P49720+P28070+Q99436)
# assay comment: Activation of human 20S proteosome at chymotrypsin like site assessed as substrate degradation using Suc-LLVY-AMC as flurogenic substrate preincubated for 15 mins followed by substrate addition and measured after 1 hr by spectrometric analysis
# Assay type: protein-complex assay
experimental endpoint: EC200

Some solved cases for reference:
smiles	EC200
CN(C)C(=O)CCN1c2ccccc2Sc2ccc(Cl)cc21	> 80 µM
NC(=O)CCCCN1c2ccccc2Sc2ccc(Cl)cc21	> 80 µM

Next item in the queue.
q: What does the record list as EC200 for `CC(C)(C)OC(=O)c1ccc(CN2c3ccccc3Sc3ccc(Cl)cc32)cc1` ?
a: > 80 µM

###

# tested system: 20S proteasome (Homo sapiens) (UniProt P49721+P20618+P28074+P28062+P28065+P28072+P25786+P25787+P25788+P25789+P28066+P60900+O14818+Q8TAA3+P40306+A5LHX3+P49720+P28070+Q99436)
# assay comment: Activation of human 20S proteosome at chymotrypsin like site assessed as substrate degradation using Suc-LLVY-AMC as flurogenic substrate preincubated for 15 mins followed by substrate addition and measured after 1 hr by spectrometric analysis
# Format: protein-complex assay
# experimental setup: filed as activator
experimental endpoint: EC200 (µM)

Record excerpt, results attached:
smiles	EC200, µM
O=[N+]([O-])c1cccc(CN2c3ccccc3Sc3ccc(Cl)cc32)c1	1.1
COC(=O)c1cccc(CN2c3ccccc3Sc3ccc(Cl)cc32)c1	2.4
O=C(CCN1c2ccccc2Sc2ccc(Cl)cc21)N(c1ccc(F)cc1)c1ccc(F)cc1	0.7

1: COC(=O)c1ccc(CN2c3ccccc3Sc3ccc(Cl)cc32)cc1
2: Nc1cccc(CN2c3ccccc3Sc3ccc(Cl)cc32)c1
q: Given 1 and given 2 , which shows the smaller recorded EC200? To answer, give the label that identifies your chosen option.
a: 1
(1: 1.9 µM, 2: 6.5 µM)

a: CN(C)CCCN1c2ccccc2Sc2ccc(Cl)cc21
b: Clc1ccc2c(c1)N(Cc1ccccc1)c1ccccc1S2
q: Larger number for EC200: a , or b ? Answer by stating the label of the chosen item.
a: a
(a: 7 µM, b: 2.8 µM)

###

# tested system: 20S proteasome (Homo sapiens) (UniProt P49721+P20618+P28074+P28062+P28065+P28072+P25786+P25787+P25788+P25789+P28066+P60900+O14818+Q8TAA3+P40306+A5LHX3+P49720+P28070+Q99436)
# assay comment: Activation of human 20S proteosome at trypsin-like site assessed as maximum fold change in substrate degradation using Boc-LLR-AMC as flurogenic substrate preincubated for 15 mins followed by substrate addition and measured after 1 hr by spectrometric analysis relative to control
# Assay type: protein-complex assay
# experimental setup: filed as activator
experimental endpoint: fold change (FC)

Solved cases (5 shown):
smiles	fold change (FC)
Nc1cccc(CN2c3ccccc3Sc3ccc(Cl)cc32)c1	10
O=[N+]([O-])c1cccc(CN2c3ccccc3Sc3ccc(Cl)cc32)c1	8
O=C(CCN1c2ccccc2Sc2ccc(Cl)cc21)Nc1ccccc1	2
O=C(CCN1c2ccccc2Sc2ccc(Cl)cc21)N(c1ccc(F)cc1)c1ccc(F)cc1	6
Clc1ccc2c(c1)N(Cc1ccccc1)c1ccccc1S2	2

1: COc1cccc(CN2c3ccccc3Sc3ccc(Cl)cc32)c1
2: COC(=O)c1cccc(CN2c3ccccc3Sc3ccc(Cl)cc32)c1
3: COC(=O)c1ccc(CN2c3ccccc3Sc3ccc(Cl)cc32)cc1
q: Order field: fold change (FC) | Direction: descending (largest first) // rank by listing labels in the order requested
a: 3, 2, 1
(3: 15, 2: 8, 1: 2)
